For each record, write down the corresponding Activity.
Target System: Human immunodeficiency virus type 1 integrase (Human immunodeficiency virus 1) (UniProt Q7ZJM1)
Sequence (Q7ZJM1 as listed by the source): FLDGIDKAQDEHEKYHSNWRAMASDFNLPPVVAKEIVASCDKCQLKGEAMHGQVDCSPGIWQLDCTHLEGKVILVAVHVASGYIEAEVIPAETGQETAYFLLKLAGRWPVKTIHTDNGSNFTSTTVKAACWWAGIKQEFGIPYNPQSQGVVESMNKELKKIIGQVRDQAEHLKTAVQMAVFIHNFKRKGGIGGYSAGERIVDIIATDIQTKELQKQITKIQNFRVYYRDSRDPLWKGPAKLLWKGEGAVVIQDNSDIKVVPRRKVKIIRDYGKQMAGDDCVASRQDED
Protocol Summary: Binding affinity to HIV-1 integrase measured after overnight incubation by chemiluminescence analysis relative to IN 118-128
Parameters: concentration or dose not given beside the values
Square brackets hold non-standard residues; d marks the D form. Peptide text beside a SMILES is read from it. NMeK = CN[C@@H](CCCCN)C(=O)O
Supply the numeric figure in %, leaving out any unit text.

// fetch Activity given entry CC(C)[C@H](NC(=O)[C@@H](NC(=O)[C@@H](NC(=O)[C@H](CO)NC(=O)[C@@H](NC(=O)[C@H](Cc1ccccc1)NC(=O)[C@H](C)NC(=O)[C@H](CO)NC(=O)CN)[C@@H](C)O)[C@@H](C)O)[C@@H](C)O)C(=O)N[C@@H](CCCCN)C(=O)N[C@@H](C)C(=O)O (H-GSAFTSTTVKA-OH)
198

Read the entry CC(C)[C@H](NC(=O)[C@@H](NC(=O)[C@@H](NC(=O)[C@H](CO)NC(=O)[C@@H](NC(=O)[C@H](Cc1ccccc1)NC(=O)[C@H](CC(N)=O)NC(=O)[C@H](CO)NC(=O)CN)[C@@H](C)O)[C@@H](C)O)[C@@H](C)O)C(=O)N[C@@H](C)C(=O)N[C@@H](C)C(=O)O (H-GSNFTSTTVAA-OH) and write its reported Activity.
85

Return the recorded Activity value; entry: CC(C)[C@H](NC(=O)[C@@H](NC(=O)[C@@H](NC(=O)[C@H](CO)NC(=O)[C@@H](NC(=O)[C@H](Cc1ccccc1)NC(=O)[C@H](CC(N)=O)NC(=O)[C@H](CO)NC(=O)CN)[C@@H](C)O)[C@@H](C)O)[C@@H](C)O)C(=O)N(C)[C@@H](CCCCN)C(=O)N[C@@H](C)C(=O)O (H-GSNFTSTTV[NMeK]A-OH)
185
